measurement-notes: Permeability from apical to basolateral side in human Caco2 cells at 10 uM after 60 mins by HPLC-MS/MS analysis
Format: ADME, cell-based
measurement-setup: Caco-2, read-out: permeability
measured-parameter: Papp A→B at 1 h, 10 µM (×10⁻⁶ cm/s)
Kindly answer with a numeric value in ×10⁻⁶ cm/s, unit omitted.

Prompt: Request the reported Papp A→B at 1 h, 10 µM associated with O=C(Nc1ccc(CN2CCN(c3ccccc3)CC2)cc1)c1n[nH]c2ccccc12
Response: 4

Values compiled from ChEMBL document CHEMBL3792292.
